- TEST_SYSTEM: CDK2/CyclinE1 (Homo sapiens)
- Construct: purchased SignalChem C29-18G
- MEASUREMENT_NOTES: Assay for inhibition of CDK2/CyclinE1 (Caliper microfluidic kinase assay)
- Assay type: biochemical
- APPLIED_CONDITIONS: CDK2/CyclinE1, 100 μM ATP; read-out: CDK2 IC50
MEASURED_ENDPOINT: IC50

Query: Recorded IC50 for CC(C)c1cnn2ccc(-c3ccnc(Nc4ccc(N5CCCC(N(C)C)C5=O)cn4)n3)cc12 (stereo not shown) , please?
Response: 100 to 1000 nM

Query: I am curious: what IC50 value has been reported for CC(C)n1cnc2c1CN(c1nc(Nc3ccc(N4CCOCC4=O)cn3)ncc1F)CC2 ?
Response: 10 to 100 nM

Query: // IC50 lookup, key: Cc1nc2c(F)nc(-c3ccnc(Nc4ccc(N5CCNCC5=O)cn4)n3)cc2n1C(C)C
Response: 10 to 100 nM

Query: What value of IC50 has been recorded for this entry: CC(C)n1cnc2c1CN(c1nc(Nc3ccc(N4CCCNC4=O)cc3)ncc1F)CC2
Response: 10 to 100 nM
